- Test system: 885512-296-R-J2-PDC complex spheroid growth, % test/control
- assay_overview: Anticancer human tumor 885512-296-R-J2-PDC patient-derived breast carcinoma cell line growth inhibition [AhR]
- measurement_conditions: second compound 10 µM; first compound 0.03 µM; stronger effect = lower value
value_kind: viability, T/C (%)

>>> print(df.to_string())
                                   compound  output_unit  assay_value
0  Nc1ncn(C2CC(O)C(CO)S2)c(=O)n1 (centres undefined) + CC(CO)NC(=O)c1cc(-c2ccc(Cl)cc2)nn(-c2cnn(C)c2)c1=O            %         93.1
1  CCc1c2c(nc3ccc(O)cc13)-c1cc3c(c(=O)n1C2)COC(=O)[C@]3(O)CC + Cc1cncc(-c2nc(NCCc3c[nH]c4ccccc34)c3ncn(C(C)C)c3n2)c1            %         2.46
2  O=C(C=Cn1cnc(-c2cc(C(F)(F)F)cc(C(F)(F)F)c2)n1)NNc1cnccn1 + Cc1cncc(-c2nc(NCCc3c[nH]c4ccccc34)c3ncn(C(C)C)c3n2)c1            %         16.8
3  CCc1c2c(nc3ccc(O)cc13)-c1cc3c(c(=O)n1C2)COC(=O)[C@]3(O)CC + Cc1ccccc1N=Nc1ccc(NC(=O)c2ccnn2C)c(C)c1            %         3.54

----------
- System: 885512-296-R-J2-PDC complex spheroid growth, % test/control
- assay_overview: Anticancer human tumor 885512-296-R-J2-PDC cell line growth inhibition [AhR];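 note: spheroids exposed to compounds for seven days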
- measurement_conditions: curve of first compound; second compound 3.16 µM
pIC50: −log10 of the molar value.
// reported pIC50 for each item listed

compound	target_under_test	pIC50
COc1ccc([C@@H](O)c2cc(-c3ncnc4cc(N5CCOCC5)ccc34)c(F)cc2Cl)nn1 + Cc1cncc(-c2nc(NCCc3c[nH]c4ccccc34)c3ncn(C(C)C)c3n2)c1	885512-296-R-J2-PDC complex spheroid growth, % test/control	6.03
Nc1ccccc1NC(=O)c1ccc(CNC(=O)OCc2cccnc2)cc1 + Cc1ccccc1N=Nc1ccc(NC(=O)c2ccnn2C)c(C)c1	885512-296-R-J2-PDC complex spheroid growth, % test/control	6.15
CC1COCCN1c1cc(C2(S(C)(=N)=O)CC2)nc(-c2ccnc3[nH]ccc23)n1 (stereo not drawn) + CC(CO)NC(=O)c1cc(-c2ccc(Cl)cc2)nn(-c2cnn(C)c2)c1=O	885512-296-R-J2-PDC complex spheroid growth, % test/control	5.94

----------
Parameter IC50: see the listing below.
- Tested on: 885512-296-R-J2-PDC complex spheroid growth, % test/control
- assay_overview: Anticancer human tumor 885512-296-R-J2-PDC cell line growth inhibition [AhR];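 note: spheroids exposed to compounds for seven days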
- measurement_conditions: curve of first compound; second compound 3.16 µM

compound	IC50
Nc1ccn(C2OC(CO)C(O)C2(F)F)c(=O)n1 (stereo not drawn) + CC(CO)NC(=O)c1cc(-c2ccc(Cl)cc2)nn(-c2cnn(C)c2)c1=O	< 0.0316 µM
COc1cccc2c1C(=O)c1c(O)c3c(c(O)c1C2=O)CC(O)(C(=O)CO)CC3OC1CC(N)C(O)C(C)O1 (stereo not drawn) + Cc1ccccc1N=Nc1ccc(NC(=O)c2ccnn2C)c(C)c1	< 0.0316 µM
Cn1ncnc1C1c2n[nH]c(=O)c3cc(F)cc(c23)NC1c1ccc(F)cc1 (stereo not drawn) + CC(CO)NC(=O)c1cc(-c2ccc(Cl)cc2)nn(-c2cnn(C)c2)c1=O	> 0.1 µM
CCN(c1cc(-c2ccc(CN3CCOCC3)cc2)cc(C(=O)NCc2c(C)cc(C)[nH]c2=O)c1C)C1CCOCC1 + CC(CO)NC(=O)c1cc(-c2ccc(Cl)cc2)nn(-c2cnn(C)c2)c1=O	> 3 µM
COc1cc(Nc2ncc3c(n2)-c2ccc(Cl)cc2C(c2c(F)cccc2OC)=NC3)ccc1C(=O)O + Cc1cncc(-c2nc(NCCc3c[nH]c4ccccc34)c3ncn(C(C)C)c3n2)c1	< 0.0316 µM
COc1cccc2c1C(=O)c1c(O)c3c(c(O)c1C2=O)CC(O)(C(=O)CO)CC3OC1CC(N)C(O)C(C)O1 (stereo not drawn) + Cc1cncc(-c2nc(NCCc3c[nH]c4ccccc34)c3ncn(C(C)C)c3n2)c1	< 0.0316 µM
COc1cccc2c1C(=O)c1c(O)c3c(c(O)c1C2=O)CC(O)(C(=O)CO)CC3OC1CC(N)C(O)C(C)O1 (stereo not drawn) + CC(CO)NC(=O)c1cc(-c2ccc(Cl)cc2)nn(-c2cnn(C)c2)c1=O	< 0.0316 µM
Nc1ccn(C2OC(CO)C(O)C2(F)F)c(=O)n1 (stereo not drawn) + Cc1cncc(-c2nc(NCCc3c[nH]c4ccccc34)c3ncn(C(C)C)c3n2)c1	< 0.0316 µM
CCN(c1cc(-c2ccc(CN3CCOCC3)cc2)cc(C(=O)NCc2c(C)cc(C)[nH]c2=O)c1C)C1CCOCC1 + Cc1ccccc1N=Nc1ccc(NC(=O)c2ccnn2C)c(C)c1	> 3 µM
O=C(C=Cn1cnc(-c2cc(C(F)(F)F)cc(C(F)(F)F)c2)n1)NNc1cnccn1 + CC(CO)NC(=O)c1cc(-c2ccc(Cl)cc2)nn(-c2cnn(C)c2)c1=O	0.0656 µM
CC(C)c1c(-c2ccccc2)nc2c(C#N)c[nH]n2c1=O + Cc1cncc(-c2nc(NCCc3c[nH]c4ccccc34)c3ncn(C(C)C)c3n2)c1	> 10 µM
CCc1c2c(nc3ccc(O)cc13)-c1cc3c(c(=O)n1C2)COC(=O)[C@]3(O)CC + CC(CO)NC(=O)c1cc(-c2ccc(Cl)cc2)nn(-c2cnn(C)c2)c1=O	< 0.000949 µM
O=C(C=Cc1cccc(S(=O)(=O)Nc2ccccc2)c1)NO + CC(CO)NC(=O)c1cc(-c2ccc(Cl)cc2)nn(-c2cnn(C)c2)c1=O	1.32 µM
Cn1ncnc1C1c2n[nH]c(=O)c3cc(F)cc(c23)NC1c1ccc(F)cc1 (stereo not drawn) + Cc1ccccc1N=Nc1ccc(NC(=O)c2ccnn2C)c(C)c1	> 0.1 µM
O=C(C=Cn1cnc(-c2cc(C(F)(F)F)cc(C(F)(F)F)c2)n1)NNc1cnccn1 + Cc1ccccc1N=Nc1ccc(NC(=O)c2ccnn2C)c(C)c1	0.0648 µM
CCc1c2c(nc3ccc(O)cc13)-c1cc3c(c(=O)n1C2)COC(=O)[C@]3(O)CC + Cc1ccccc1N=Nc1ccc(NC(=O)c2ccnn2C)c(C)c1	< 0.000949 µM
NS(=O)(=O)OCC1CC(n2ccc3c(NC4CCc5ccccc54)ncnc32)CC1O (stereo not drawn) + Cc1cncc(-c2nc(NCCc3c[nH]c4ccccc34)c3ncn(C(C)C)c3n2)c1	0.0436 µM
O=C(c1cc(Cc2n[nH]c(=O)c3ccccc23)ccc1F)N1CCN(C(=O)C2CC2)CC1 + CC(CO)NC(=O)c1cc(-c2ccc(Cl)cc2)nn(-c2cnn(C)c2)c1=O	7.14 µM

----------
- Test system: 885512-296-R-J2-PDC complex spheroid growth, % test/control
- assay_overview: Anticancer human tumor 885512-296-R-J2-PDC cell line growth inhibition [AhR];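 note: spheroids exposed to compounds for seven days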
- measurement_conditions: second compound 1 µM; first compound 10 µM; stronger effect = lower value

compound	output_unit	viability, T/C
COc1ccc([C@@H](O)c2cc(-c3ncnc4cc(N5CCOCC5)ccc34)c(F)cc2Cl)nn1 + CC(CO)NC(=O)c1cc(-c2ccc(Cl)cc2)nn(-c2cnn(C)c2)c1=O	%	51.4
CC1COCCN1c1cc(C2(S(C)(=N)=O)CC2)nc(-c2ccnc3[nH]ccc23)n1 (stereo not given) + CC(CO)NC(=O)c1cc(-c2ccc(Cl)cc2)nn(-c2cnn(C)c2)c1=O	%	5.36
COc1cc(Nc2ncc3c(n2)-c2ccc(Cl)cc2C(c2c(F)cccc2OC)=NC3)ccc1C(=O)O + Cc1ccccc1N=Nc1ccc(NC(=O)c2ccnn2C)c(C)c1	%	49
CC1(C)CCC(CN2CCN(c3ccc(C(=O)NS(=O)(=O)c4ccc(NCC5CCOCC5)c([N+](=O)[O-])c4)c(Oc4cnc5[nH]ccc5c4)c3)CC2)=C(c2ccc(Cl)cc2)C1 + Cc1cncc(-c2nc(NCCc3c[nH]c4ccccc34)c3ncn(C(C)C)c3n2)c1	%	23.2
NS(=O)(=O)OCC1CC(n2ccc3c(NC4CCc5ccccc54)ncnc32)CC1O (stereo not given) + Cc1ccccc1N=Nc1ccc(NC(=O)c2ccnn2C)c(C)c1	%	6.16
COc1cccc2c1C(=O)c1c(O)c3c(c(O)c1C2=O)CC(O)(C(=O)CO)CC3OC1CC(N)C(O)C(C)O1 (stereo not given) + CC(CO)NC(=O)c1cc(-c2ccc(Cl)cc2)nn(-c2cnn(C)c2)c1=O	%	1.04
COc1cc(C2c3cc4c(cc3C(OC3OC5COC(C)OC5C(O)C3O)C3COC(=O)C23)OCO4)cc(OC)c1O (stereo not given) + CC(CO)NC(=O)c1cc(-c2ccc(Cl)cc2)nn(-c2cnn(C)c2)c1=O	%	8.44
CC1COCCN1c1cc(C2(S(C)(=N)=O)CC2)nc(-c2ccnc3[nH]ccc23)n1 (stereo not given) + Cc1ccccc1N=Nc1ccc(NC(=O)c2ccnn2C)c(C)c1	%	5.01
CC(C)c1c(-c2ccccc2)nc2c(C#N)c[nH]n2c1=O + Cc1cncc(-c2nc(NCCc3c[nH]c4ccccc34)c3ncn(C(C)C)c3n2)c1	%	81.8
CC1(C)CCC(CN2CCN(c3ccc(C(=O)NS(=O)(=O)c4ccc(NCC5CCOCC5)c([N+](=O)[O-])c4)c(Oc4cnc5[nH]ccc5c4)c3)CC2)=C(c2ccc(Cl)cc2)C1 + Cc1ccccc1N=Nc1ccc(NC(=O)c2ccnn2C)c(C)c1	%	15.5
O=C(c1cc(Cc2n[nH]c(=O)c3ccccc23)ccc1F)N1CCN(C(=O)C2CC2)CC1 + CC(CO)NC(=O)c1cc(-c2ccc(Cl)cc2)nn(-c2cnn(C)c2)c1=O	%	27.8
O=C(c1cc(Cc2n[nH]c(=O)c3ccccc23)ccc1F)N1CCN(C(=O)C2CC2)CC1 + Cc1ccccc1N=Nc1ccc(NC(=O)c2ccnn2C)c(C)c1	%	18.7
Nc1ccn(C2OC(CO)C(O)C2(F)F)c(=O)n1 (stereo not given) + CC(CO)NC(=O)c1cc(-c2ccc(Cl)cc2)nn(-c2cnn(C)c2)c1=O	%	4.22
O=C(c1cc(Cc2n[nH]c(=O)c3ccccc23)ccc1F)N1CCN(C(=O)C2CC2)CC1 + Cc1cncc(-c2nc(NCCc3c[nH]c4ccccc34)c3ncn(C(C)C)c3n2)c1	%	30.3
COc1ccc([C@@H](O)c2cc(-c3ncnc4cc(N5CCOCC5)ccc34)c(F)cc2Cl)nn1 + Cc1ccccc1N=Nc1ccc(NC(=O)c2ccnn2C)c(C)c1	%	44.2

FYI, the data here is from PubChem BioAssay AID1919006.
